All values here come from PubChem BioAssay (NCI).

system: HS 578T breast; assay: NCI tumour cell line growth inhibition, 48 h
Reported TGI is given for each of the following compounds.
Respond numerically; units are µM and should not be typed.

Previously resolved entries follow.
compound	units_of_measure	obs_value
COC(=O)/C=C1/OC(c2ccc(OC)cc2)=C(Cl)C1=O	µM	84
CN(C)c1ccc(C=C2C(=O)NC(=S)NC2=O)c2ccccc12	µM	71.8
Cc1cnc(CNC(=O)c2c(=O)c3ccc(N4CCCN(C)CC4)nc3n3c2sc2ccccc23)cn1	µM	47.4
COc1cccc(-c2cc3c4c(nc5ccccc53)C(=O)c3cccnc3-c4n2)c1	µM	11.2
C[C@@H]1CC[C@@]2(OC1)O[C@H]1C[C@H]3[C@@H]4CC[C@H]5C[C@@H](OC6OC(CO)C(OC7OC(CO)C(O)C(OC8OCC(O)C(O)C8O)C7OC7OC(CO)C(O)C(O)C7O)C(O)C6O)[C@H](O)C[C@]5(C)[C@H]4CC[C@]3(C)[C@H]1[C@@H]2C (stereo partly drawn)	µM	15.9

Lookup: Item under review: O=c1cc(-c2cccnc2)[nH]c2cc3c(cc12)OCO3 . Reported TGI?
Found: 69.6

Lookup: // repeat for CCC[CH2][Sn]1([CH2]CCC)[O]C2C(CO)OC(n3ccc(N)nc3=O)C2[O]1 (stereo not drawn) and report
Found: 4.14

Lookup: For CCOC(=O)c1nnc2c(C#N)c(-c3ccccc3)c(C)n2c1N then?
Found: 85.7

Lookup: // query: CC1C(C#N)(C#N)C(C#N)=C(N)C1(Cl)[N+](=O)[O-] (stereo not drawn)
Found: 46.1

Lookup: How about O=[N+]([O-])c1cc(Cl)cnc1Br ?
Found: 59.9

Lookup: Likewise for Oc1c(Cl)c(Cl)c(O)c2c1CCCC2 ?
Found: 49.2
